- targetSystem: Free fatty acid receptor 1 (Homo sapiens)
- Sequence (O14842 whole entry): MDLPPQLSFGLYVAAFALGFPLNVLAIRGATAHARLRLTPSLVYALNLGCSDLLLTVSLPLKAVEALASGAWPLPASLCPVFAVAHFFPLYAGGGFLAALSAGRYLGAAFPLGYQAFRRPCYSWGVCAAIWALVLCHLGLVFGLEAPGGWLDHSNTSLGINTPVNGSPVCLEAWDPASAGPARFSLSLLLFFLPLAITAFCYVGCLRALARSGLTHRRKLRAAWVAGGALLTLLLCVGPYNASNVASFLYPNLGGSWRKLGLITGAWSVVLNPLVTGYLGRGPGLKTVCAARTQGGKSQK
- test: Positive allosteric modulation of human GPR40 expressed in HEK293 cells assessed as IP1 accumulation measured after 60 mins by HTRF assay relative to DMSO control
- Type: functional, cell-based
- Set-up: concentration or dose not given beside the values
Assignment: determine reported Activity for the given compounds.
I only need the number, in %, no unit after it.

Query :: # returns recorded Activity (system: Free fatty acid receptor 1 (Homo sapiens)) for COc1ccc(F)c(-c2ccc(C3CCc4ccc([C@@H](CC(=O)O)C5CC5)cc4O3)cc2C(OC)C2CC2)c1 (single isomer, unassigned; isomer 3)
Result :: 321

Query :: # returns recorded Activity (system: Free fatty acid receptor 1 (Homo sapiens)) for COc1ccc(F)c(-c2ccc(C3CCc4ccc([C@@H](CC(=O)O)C5CC5)cc4O3)cc2[C@H](OC)C(C)(C)C)c1 (stereo in doubt; 15)
Result :: 444

Query :: # returns recorded Activity (system: Free fatty acid receptor 1 (Homo sapiens)) for COc1ccc(F)c(-c2ccc(C3CCc4ccc([C@H](C5CC5)[C@H](C)C(=O)O)cc4O3)nc2)c1 (stereo in doubt; 29)
Result :: 428
